All values here come from patent US20020137929A1.

# Test system: CYPIR (Rice Flatsedge)
# ASSAY_NOTES: Preemergence weed control under flooded paddy conditions
# Type: in vivo, Cyperus iria
# REPORTED_CONDITIONS: 0.0313 kg/ha, rated 3-4 weeks after treatment
# Procedure: Results of herbicide evaluation are expressed on a rating scale (0-9). The scale is based upon a visual observation of plant stand, vigor, malformation, size, chlorosis and overall plant appearance as compared with a control. Preemergence herbicidal activity under flooded paddy conditions is determined as follows: plant seeds or propagating organs are planted in the top 0.5 cm of silt loam soil in 32 oz. plastic containers with a diameter of 10.5 cm and no drainage holes. […]
MEASUREMENT_NAME: herbicidal effect rating, CYPIR
Numbers only.

Before answering, review these 3 worked examples.
Cn1c(C(F)(F)F)cc(=O)n(-c2cc(N=C3SCC(=O)N3Cc3ccc(S(N)(=O)=O)cc3)c(Cl)cc2F)c1=O ... 5.0
Cn1c(C(F)(F)F)cc(=O)n(-c2cc(N=C3SCC(=O)N3Cc3ccc(Cl)cc3)c(Cl)cc2F)c1=O ... 4.0
CCOC(=O)CN1C(=O)C(CC(=O)NS(=O)(=O)C(C)C)SC1=Nc1cc(-n2c(=O)cc(C(F)(F)F)n(C)c2=O)c(F)cc1Cl (stereo not shown) ... 0.0

Here is another compound to look at.
Request: Given `Cn1c(C(F)(F)F)cc(=O)n(-c2cc(N=C3SCC(=O)N3Cc3ccc(Br)cc3)c(Cl)cc2F)c1=O` , state its recorded herbicidal effect rating, CYPIR.
Response: 4.0
